- measurement_notes: MRT in monkey at 2 mg/kg, iv
- Assay type: ADME, organism-based, Macaca mulatta
- cond: rhesus monkey, in vivo
measured_endpoint: MRT

>  <chemical_smiles>
CC(C)C[C@](C)(N)COc1ccc(-c2ccnc(C(F)F)c2)nc1C(F)F

>  <reported>
8.5 h

$$$$

----------
- measurement_notes: Ratio of drug concentration in spinal cord to plasma of overnight fasted Sprague-Dawley rat model with streptozotocin induced diabetic peripheral neuropathic mechanical allodynia at 0.1 mg/kg, po measured at 5.5 hrs post dose
- Format: ADME, organism-based

>  <chemical_smiles>
CC(C)C[C@](C)(N)COc1ccc(-c2ccnc(C(F)F)c2)nc1C(F)F

>  <Kp at 5.5 h>
13

$$$$

----------
- measurement_notes: Permeability of compound at pH 7.4 measured after 4 hrs by PAMPA assay
- Format: ADME
- cond: read-out: permeability
Recorded measurements of Papp at 4 h, one per entry

>  <compound>
CC(C)C[C@](C)(N)COc1ccc(-c2ccnc(C(F)F)c2)cc1C#N

>  <unit_annotation>
×10⁻⁶ cm/s

>  <Papp at 4 h>
68.7

$$$$
>  <compound>
Cc1cc(-c2ccc(OC[C@@](C)(N)CC(C)C)c(C(F)(F)F)c2)ccn1

>  <unit_annotation>
×10⁻⁶ cm/s

>  <Papp at 4 h>
30.5

$$$$
>  <compound>
Cc1cc(-c2ccc(OC[C@@](C)(N)CC(C)C)c(C(F)F)c2)ccn1

>  <unit_annotation>
×10⁻⁶ cm/s

>  <Papp at 4 h>
31.9

$$$$
>  <compound>
CC(C)C[C@](C)(N)COc1ccc(-c2ccnc(C(F)F)c2)cc1C(F)(F)F

>  <unit_annotation>
×10⁻⁶ cm/s

>  <Papp at 4 h>
55

$$$$
>  <compound>
CC(C)C[C@](C)(N)COc1ccc(-c2ccnc(C(F)F)c2)cc1C(F)F

>  <unit_annotation>
×10⁻⁶ cm/s

>  <Papp at 4 h>
42.7

$$$$
>  <compound>
CC(C)C[C@](C)(N)COc1ccc(-c2ccnc(C(F)F)c2)nc1C(F)F [PILAVAPADIN]

>  <unit_annotation>
×10⁻⁶ cm/s

>  <Papp at 4 h>
72.4

$$$$

----------
- measurement_notes: Solubility of the compound at pH 6.5 using crystalline form of sample
- Format: physicochemical
measured_endpoint: solubility thermodynamic (µg/mL)

>  <compound>
CC(C)C[C@](C)(N)COc1ccc(-c2ccnc(C(F)F)c2)nc1C(F)F [PILAVAPADIN]

>  <reported>
440

$$$$

----------
- measurement_notes: Metabolic stability in human liver microsomes assessed as half life
- Type: ADME, Microsome

>  <chemical_smiles>
CC(C)C[C@](C)(N)COc1ccc(-c2ccnc(C(F)F)c2)nc1C(F)F

>  <half-life>
> 2 h

$$$$

----------
- target: Cytochrome P450 2C19 (Homo sapiens)
- Sequence (P33261 whole entry): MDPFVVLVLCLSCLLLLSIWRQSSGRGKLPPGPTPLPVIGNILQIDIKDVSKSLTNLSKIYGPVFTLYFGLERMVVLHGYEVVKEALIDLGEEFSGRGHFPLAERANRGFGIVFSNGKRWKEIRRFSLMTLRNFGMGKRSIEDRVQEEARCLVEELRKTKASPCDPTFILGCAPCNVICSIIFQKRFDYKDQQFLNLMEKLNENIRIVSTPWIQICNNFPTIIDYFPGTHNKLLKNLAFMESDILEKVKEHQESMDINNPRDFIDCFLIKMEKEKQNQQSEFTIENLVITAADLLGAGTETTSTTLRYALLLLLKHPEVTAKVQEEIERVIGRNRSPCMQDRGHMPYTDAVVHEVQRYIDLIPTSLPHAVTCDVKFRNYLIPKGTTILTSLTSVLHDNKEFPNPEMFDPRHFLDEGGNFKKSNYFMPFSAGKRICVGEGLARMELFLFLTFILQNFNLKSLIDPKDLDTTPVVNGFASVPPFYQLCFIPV
pIC50: −log10 of the molar value.
measured_endpoint: pIC50

>  <chemical_smiles>
CC(C)C[C@](C)(N)COc1ccc(-c2ccnc(C(F)F)c2)nc1C(F)F

>  <reported>
< 4.70

$$$$

----------
- measurement_notes: Displacement of 3H-LP-927443 from AAK1 in mouse brain membrane homogenate assessed as inhibition constant at 1 uM incubated for 1 hr by liquid scintillation counter analysis
- Assay type: cell membranes
pKi: −log10 of the molar value.
Recorded measurements of pKi, one per entry
measured_endpoint: pKi

>  <chemical_smiles>
CC(C)C[C@](C)(N)COc1ccc(-c2ccnc(C(F)F)c2)cc1C(F)(F)F

>  <reported>
10.15

$$$$
>  <chemical_smiles>
Cc1cc(-c2ccc(OC[C@@](C)(N)CC(C)C)c(C)n2)ccn1

>  <reported>
8.14

$$$$
>  <chemical_smiles>
CC(C)C[C@](C)(N)COc1ccc(-c2ccncc2)cc1C(F)(F)F

>  <reported>
9.77

$$$$
>  <chemical_smiles>
CC(C)C[C@](C)(N)COc1ccc(-c2ccnc(C(F)F)c2)cc1C(F)F

>  <reported>
10.40

$$$$
>  <chemical_smiles>
Cc1cc(-c2ccc(OC[C@@H](N)CC(C)C)c(C#N)c2)ccn1

>  <reported>
9.15

$$$$
>  <chemical_smiles>
Cc1cc(-c2ccc(OC[C@@](C)(N)CC(C)C)c(C(F)F)c2)ccn1

>  <reported>
10.10

$$$$
>  <chemical_smiles>
Cc1cc(-c2ccc(OC[C@@](C)(N)CC(C)C)c(C(F)F)n2)ccn1

>  <reported>
8.96

$$$$
>  <chemical_smiles>
CC(C)C[C@](C)(N)COc1ccc(-c2ccnc(C(F)F)c2)nc1C(F)F

>  <reported>
9.51

$$$$
>  <chemical_smiles>
Cc1cc(-c2ccc(OC[C@@](C)(N)CC(C)C)c(C(F)(F)F)c2)ccn1

>  <reported>
9.66

$$$$
>  <chemical_smiles>
CC(C)C[C@](C)(N)COc1ccc(-c2ccnc(C(F)F)c2)cc1C#N

>  <reported>
9.60

$$$$

----------
- measurement_notes: Clearance in monkey at 2 mg/kg, iv
- Type: ADME, organism-based, Macaca mulatta
- cond: rhesus monkey, in vivo

>  <chemical_smiles>
CC(C)C[C@](C)(N)COc1ccc(-c2ccnc(C(F)F)c2)nc1C(F)F

>  <clearance (mL/min/kg)>
41.2

$$$$

----------
- measurement_notes: Protein binding in cynomolgus monkey plasma assessed as unbound fraction at 10 uM incubated for 5 hrs by LC-MS/MS analysis
- Assay type: ADME, cell-free, Macaca fascicularis

>  <molecule>
CC(C)C[C@](C)(N)COc1ccc(-c2ccnc(C(F)F)c2)nc1C(F)F [PILAVAPADIN]

>  <fraction unbound at 5 h, 10 µM>
0.053

$$$$

----------
- measurement_notes: Ratio of drug concentration in spinal cord to plasma in CCI induced thermal hyperalgesia Sprague-Dawley rat model at 1 mg/kg, po measured at 5.75 hrs post dose
- Assay type: ADME, organism-based

>  <chemical_smiles>
CC(C)C[C@](C)(N)COc1ccc(-c2ccnc(C(F)F)c2)nc1C(F)F

>  <Kp at 5.75 h>
19

$$$$

----------
- measurement_notes: MRT in mouse at 2 mg/kg, iv
- Format: ADME, organism-based
- cond: in vivo
measured_endpoint: MRT

>  <molecule>
CC(C)C[C@](C)(N)COc1ccc(-c2ccnc(C(F)F)c2)nc1C(F)F [PILAVAPADIN]

>  <reported>
63.8 h

$$$$

----------
- measurement_notes: Ratio of drug concentration in spinal cord to plasma in Sprague-Dawley rat at 3 mg/kg, po measured at 5.25 hrs post dose
- Assay type: ADME, organism-based

>  <chemical_smiles>
CC(C)C[C@](C)(N)COc1ccc(-c2ccnc(C(F)F)c2)nc1C(F)F

>  <Kp at 5.25 h>
19

$$$$

----------
- measurement_notes: Cmax in naive Sprague-Dawley rat plasma at 3 mg/kg, po measured at 5.25 hrs post dose
- Assay type: ADME, organism-based
- Set-up: route oral, time 5.25 hrs, dose 3 mg/kg
measured_endpoint: Cmax

>  <chemical_smiles>
CC(C)C[C@](C)(N)COc1ccc(-c2ccnc(C(F)F)c2)nc1C(F)F

>  <measured_endpoint>
Cmax

>  <reported>
200 nM

$$$$

----------
- measurement_notes: Ratio of drug concentration in spinal cord to plasma of overnight fasted Sprague-Dawley rat model with streptozotocin induced diabetic peripheral neuropathic mechanical allodynia at 0.3 mg/kg, po measured at 5.5 hrs post dose
- Format: ADME, organism-based

>  <chemical_smiles>
CC(C)C[C@](C)(N)COc1ccc(-c2ccnc(C(F)F)c2)nc1C(F)F

>  <Kp at 5.5 h>
8

$$$$

----------
- target: AP2-associated protein kinase 1 (Homo sapiens, UniProt Q2M2I8)
- Sequence (Q2M2I8 whole entry, the tested form may be a part): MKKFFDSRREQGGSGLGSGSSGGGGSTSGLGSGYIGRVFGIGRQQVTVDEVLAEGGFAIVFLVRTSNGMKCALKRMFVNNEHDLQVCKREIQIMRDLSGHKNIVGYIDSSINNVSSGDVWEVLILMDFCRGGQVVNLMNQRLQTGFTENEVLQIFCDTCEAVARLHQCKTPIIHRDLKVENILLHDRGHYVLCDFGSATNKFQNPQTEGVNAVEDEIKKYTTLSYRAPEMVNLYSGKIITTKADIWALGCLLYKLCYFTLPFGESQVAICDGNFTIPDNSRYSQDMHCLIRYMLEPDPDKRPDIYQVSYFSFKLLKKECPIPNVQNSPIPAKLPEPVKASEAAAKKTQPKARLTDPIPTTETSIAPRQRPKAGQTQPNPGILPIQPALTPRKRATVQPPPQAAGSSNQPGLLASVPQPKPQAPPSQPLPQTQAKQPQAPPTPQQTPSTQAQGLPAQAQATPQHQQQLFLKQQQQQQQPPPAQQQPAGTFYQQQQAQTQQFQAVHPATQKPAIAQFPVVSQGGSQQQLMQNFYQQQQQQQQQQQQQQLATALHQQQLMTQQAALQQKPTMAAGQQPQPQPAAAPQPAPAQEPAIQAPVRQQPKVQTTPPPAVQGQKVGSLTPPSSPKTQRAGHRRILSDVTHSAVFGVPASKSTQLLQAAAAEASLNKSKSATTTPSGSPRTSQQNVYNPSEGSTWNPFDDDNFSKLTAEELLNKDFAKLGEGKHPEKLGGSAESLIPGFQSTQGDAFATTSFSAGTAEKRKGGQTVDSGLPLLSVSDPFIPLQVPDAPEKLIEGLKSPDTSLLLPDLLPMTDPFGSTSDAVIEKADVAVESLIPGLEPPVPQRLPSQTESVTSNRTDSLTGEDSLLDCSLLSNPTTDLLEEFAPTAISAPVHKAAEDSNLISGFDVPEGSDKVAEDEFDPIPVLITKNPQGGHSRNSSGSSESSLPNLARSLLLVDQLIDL
- measurement_notes: Inhibition of GST-Xa tagged human AAK1 (30 to 330 residues) expresssed in bacteria using (5-FAM)-Aha-KEEQSQITSQVTGQIGWR-NH2 peptide as substrate incubated for 3 hrs in presence of ATP by electrophoretic analysis
Recorded measurements of IC50, one per entry

>  <chemical_smiles>
Cc1cc(-c2ccc(OC[C@@](C)(N)CC(C)C)c(C(F)(F)F)c2)ccn1

>  <IC50 [pM]>
900

$$$$
>  <chemical_smiles>
Cc1cc(-c2ccc(OC[C@@H](N)CC(C)C)c(C#N)c2)ccn1

>  <IC50 [pM]>
800

$$$$
>  <chemical_smiles>
CC(C)C[C@](C)(N)COc1ccc(-c2ccnc(Cl)c2)nc1C(F)F

>  <IC50 [pM]>
3900

$$$$
>  <chemical_smiles>
CC(C)C[C@](C)(N)COc1ccc(-c2ccnc(C(F)F)c2)nc1C(F)F

>  <IC50 [pM]>
2000

$$$$
>  <chemical_smiles>
Cc1cc(-c2ccc(OC[C@@](C)(N)CC(C)C)c(C(F)F)c2)ccn1

>  <IC50 [pM]>
400

$$$$
>  <chemical_smiles>
Cc1cc(-c2cnc(OC[C@@](C)(N)CC(C)C)c(C(F)F)c2)ccn1

>  <IC50 [pM]>
1900

$$$$
>  <chemical_smiles>
Cc1cc(-c2ccc(OC[C@@](C)(N)CC(C)C)c(C)n2)ccn1

>  <IC50 [pM]>
36000

$$$$
>  <chemical_smiles>
Cc1cc(-c2ccc(OC[C@@](C)(N)CC(C)C)c(C(F)F)n2)ccn1

>  <IC50 [pM]>
2900

$$$$
>  <chemical_smiles>
CC(C)C[C@](C)(N)COc1ccc(-c2ccnc(C(F)F)c2)cc1C(F)(F)F

>  <IC50 [pM]>
600

$$$$
>  <chemical_smiles>
CC(C)C[C@](C)(N)COc1ccc(-c2ccnc(C(F)F)c2)cc1C(F)F

>  <IC50 [pM]>
400

$$$$
>  <chemical_smiles>
CC(C)C[C@](C)(N)COc1ccc(-c2ccncc2)cc1C(F)(F)F

>  <IC50 [pM]>
600

$$$$
>  <chemical_smiles>
CC(C)C[C@](C)(N)COc1ccc(-c2ccnc(C(F)F)c2)cc1C#N

>  <IC50 [pM]>
600

$$$$
>  <chemical_smiles>
CC(C)C[C@](C)(N)COc1ncc(-c2ccnc(Cl)c2)cc1C(F)F

>  <IC50 [pM]>
3100

$$$$
